- System: Rattus norvegicus
- Test Details: Maximum fall in mean arterial blood pressure was measured in SH rats when compound was administered at 20 mg/kg perorally
- Type: functional
- Condition Set: route oral
Assay Readout: MAP (mmHg)

{"Compound": "Cl.NCc1c(O)c(Cl)cc(Cl)c1Cl", "Unit Info": "mmHg", "Value Reported": 18}
{"Compound": "CCc1c(Cl)c(C)c(CN)c(O)c1Cl.Cl", "Unit Info": "mmHg", "Value Reported": 10}
{"Compound": "CC(C)(C)c1cc(Cl)c(O)c(CN)c1.Cl", "Unit Info": "mmHg", "Value Reported": 9}
{"Compound": "NS(=O)(=O)c1cc2c(cc1Cl)NCNS2(=O)=O [HYDROCHLOROTHIAZIDE]", "Unit Info": "mmHg", "Value Reported": 25}
